- Study System: STING WT (His-TVMV-S-hSTING(155-341)-H232R) (Homo sapiens, UniProt Q86WV6, H232R)
- Construct: STING WT: His-TVMV-S-hSTING(155-341)-H232R
- Sequence (Q86WV6 with tags, fused parts or gaps H232R): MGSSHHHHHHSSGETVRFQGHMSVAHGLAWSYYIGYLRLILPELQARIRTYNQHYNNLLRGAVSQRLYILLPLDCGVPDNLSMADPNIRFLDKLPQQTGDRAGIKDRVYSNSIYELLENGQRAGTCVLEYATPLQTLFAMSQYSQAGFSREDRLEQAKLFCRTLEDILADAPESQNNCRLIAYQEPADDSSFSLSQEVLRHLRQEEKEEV
- Method: STING HTRF binding assay (time resolved FRET competition), STING WT
- Test Conditions: 20 nM His-tagged STING WT cytoplasmic domain, 200 nM fluorescein-labeled cGAMP analog probe, one hour; read-out: HTRF Binding Assays IC50 WT
Assay Readout: IC50 (nM)
Respond with the bare value in nM.

Recorded IC50, per entry:
Compound	IC50, nM
NC(=O)c1cccc2c1nnn2[C@@H]1O[C@@H]2COP(=O)(O)O[C@H]3[C@@H](F)[C@H](n4cnc5c(N)ncnc54)O[C@@H]3COP(=O)(S)O[C@@H]1[C@@H]2F (single isomer, unassigned) [Example 6-2]	50
Nc1ncnc2c1ncn2[C@@H]1O[C@@H]2COP(=O)(O)O[C@@H]3[C@H](O)[C@@H](COP(=O)(O)O[C@H]2[C@H]1O)O[C@H]3n1nnc2c(N)cccc21	1700
Nc1ncnc2c1ncn2[C@@H]1O[C@@H]2COP(=O)(S)O[C@@H]3[C@H](O)[C@@H](COP(=O)(S)O[C@H]2[C@H]1F)O[C@H]3n1nnc2c(C(F)(F)F)cccc21 (single isomer, unassigned) [Example 9-1]	20

Shift focus to the following entry.
API: value(readout=IC50, system=STING WT (His-TVMV-S-hSTING(155-341)-H232R) (Homo sapiens, UniProt Q86WV6, H232R)) for record NC(=O)c1cccc2c1nnn2[C@@H]1O[C@@H]2COP(=O)(O)O[C@H]3[C@@H](F)[C@H](n4cnc5c(N)ncnc54)O[C@@H]3COP(=O)(S)O[C@@H]1[C@@H]2O (single isomer, unassigned) [Example 4-2]
10

---

# IC50 per entry
- Study System: STING AQ (His-TVMV-S-hSTING(155-341)-G230A-R293Q) (Homo sapiens, UniProt Q86WV6, G230A/H232R/R293Q)
- Construct: STING AQ: His-TVMV-S-hSTING(155-341)-G230A-R293Q
- Sequence (Q86WV6 with tags, fused parts or gaps G230A/H232R/R293Q): as the sequence (Q86WV6 with tags, fused parts or gaps H232R) above, with G99A, R162Q counted along it
- Method: STING HTRF binding assay (time resolved FRET competition), STING AQ
- Test Conditions: 20 nM His-tagged STING AQ cytoplasmic domain, 40 nM fluorescein-labeled cGAMP analog probe, one hour; read-out: HTRF Binding Assays IC50 AQ
- Description: A time resolved FRET-based competition binding assay was used to assess test article binding to STING WT and STING AQ. […] Fluorescence at 495 nm and 520 nm was measured using an EnVision microplate reader to quantify FRET between Tb-labeled anti-His antibody and fluorescein-labeled probe. […] Percent inhibition was determined for test compounds at 11 concentrations. […]

Solved entries:
Compound	IC50
C=C1[C@H]2OP(=O)(S)OC[C@H]3O[C@@H](n4cnc5c(N)ncnc54)[C@H](F)[C@@H]3OP(=O)(S)OC[C@H]1O[C@H]2n1nnc2c(C(N)=O)cccc21 (single isomer, unassigned) [Example 22-1]	10 nM
Nc1ncnc2c1ncn2[C@@H]1O[C@@H]2COP(=O)(S)O[C@@H]3[C@H](F)[C@@H](COP(=O)(S)O[C@H]2[C@H]1F)O[C@H]3n1nnc2c([N+](=O)[O-])cccc21 (single isomer, unassigned) [Example 11-2]	3 nM
NC(=O)c1cccc2c1nnn2[C@@H]1O[C@@H]2COP(=O)(O)O[C@H]3[C@@H](F)[C@H](n4cnc5c4ncn4ccnc54)O[C@@H]3COP(=O)(S)O[C@@H]1[C@@H]2F (single isomer, unassigned) [Example 16-1]	10 nM

Which IC50 is reported for this compound? NC(=O)c1cccc2c1nnn2[C@@H]1O[C@@H]2COP(=O)(S)O[C@H]3[C@@H](F)[C@H](n4cnc5c(N)ncnc54)O[C@@H]3COP(=O)(S)O[C@@H]1[C@@H]2O (single isomer, unassigned) [Example 8-1]
10 nM

---

- Study System: STING WT (His-TVMV-S-hSTING(155-341)-H232R) (Homo sapiens, UniProt Q86WV6, H232R)
- Construct: STING WT: His-TVMV-S-hSTING(155-341)-H232R
- Method: STING HTRF binding assay (time resolved FRET competition), STING WT
- Test Conditions: 20 nM His-tagged STING WT cytoplasmic domain, 200 nM fluorescein-labeled cGAMP analog probe, one hour; read-out: HTRF Binding Assays IC50 WT
Measured IC50 of individual entries
Give a bare numeral; the unit nM is implied.

Compound	IC50 / nM
Nc1ncnc2c1ncn2[C@@H]1O[C@@H]2COP(=O)(S)O[C@@H]3[C@H](O)[C@@H](COP(=O)(S)O[C@H]2[C@H]1F)O[C@H]3n1nnc2c(C(F)(F)F)cccc21 (single isomer, unassigned) [Example 9-2]	130

Endpoint output: IC50 of Nc1ncnc2c1ncn2[C@@H]1O[C@@H]2COP(=O)(S)O[C@@H]3[C@H](F)[C@@H](COP(=O)(S)O[C@H]2[C@H]1F)O[C@H]3n1nnc2c([N+](=O)[O-])cccc21 (single isomer, unassigned) [Example 11-2] . Value?
10

---

- Test system: STING / NF-κB pathway in THP1-Dual cells
- Method: STING THP1 Reporter Assay, NF-κB pathway (SEAP, QUANTI-Blue)
- Type: cell-based
- Test Conditions: 10% human plasma, 20 hours, 100% activation = 100 μM cGAMP, SEAP readout, read-out: THP1 Reporter Assays EC50 NFkB
EC50 by entry:
Provide only the numeric value, understood in nM.

Here is how some compounds turned out for EC50.
Compound	Study System	Numeric Readout
O=[N+]([O-])c1cccc2c1nnn2[C@@H]1O[C@@H]2COP(=O)(S)O[C@H]3[C@@H](F)[C@H](n4cnc5c4ncn4ccnc54)O[C@@H]3COP(=O)(S)O[C@@H]1[C@@H]2O (single isomer, unassigned) [Example 15-1]	STING / NF-κB pathway in THP1-Dual cells	2100
Nc1ncnc2c1ncn2[C@@H]1O[C@@H]2COP(=O)(S)O[C@@H]3[C@H](O)[C@@H](COP(=O)(S)O[C@H]2[C@H]1F)O[C@H]3n1nnc2c([N+](=O)[O-])cccc21 (single isomer, unassigned) [Example 7-3]	STING / NF-κB pathway in THP1-Dual cells	15300
NC(=O)c1cccc2c1nnn2[C@@H]1O[C@@H]2COP(=O)(S)O[C@H]3[C@@H](F)[C@H](n4cnc5c(N)ncnc54)O[C@@H]3COP(=O)(S)O[C@@H]1[C@@H]2F (single isomer, unassigned) [Example 10-4]	STING / NF-κB pathway in THP1-Dual cells	900

Consider the record given below.
Entry NC(=O)c1cccc2c1nnn2[C@@H]1O[C@@H]2COP(=O)(O)O[C@H]3[C@@H](F)[C@H](n4cnc5c(N)ncnc54)O[C@@H]3COP(=O)(S)O[C@@H]1[C@@H]2O (single isomer, unassigned) [Example 4-2] : reported EC50 = ?
1700

---

- Tested on: STING / NF-κB pathway in THP1-Dual cells
- Method: STING THP1 Reporter Assay, NF-κB pathway (SEAP, QUANTI-Blue)
- Format: cell-based
- Test Conditions: 10% human plasma, 20 hours, 100% activation = 100 μM cGAMP, SEAP readout, read-out: THP1 Reporter Assays EC50 NFkB
Assay Readout: EC50
The answer consists of two parts: a number and, after it, its unit.

Compound	Study System	Assay Readout	Result
Nc1ncnc2c1ncn2[C@@H]1O[C@@H]2COP(=O)(S)O[C@@H]3[C@H](O)[C@@H](COP(=O)(S)O[C@H]2[C@H]1F)O[C@H]3n1nnc2c([N+](=O)[O-])cccc21 (single isomer, unassigned) [Example 7-4]	STING / NF-κB pathway in THP1-Dual cells	EC50	8 µM

I'm curious: which EC50 was measured for Nc1ncnc2c1ncn2[C@@H]1O[C@@H]2COP(=O)(S)O[C@@H]3[C@H](O)[C@@H](COP(=O)(S)O[C@H]2[C@H]1F)O[C@H]3n1nnc2c(C(F)(F)F)cccc21 (single isomer, unassigned) [Example 9-1] tested on STING / NF-κB pathway in THP1-Dual cells?
2.2 µM

---

- Study System: STING WT (His-TVMV-S-hSTING(155-341)-H232R) (Homo sapiens, UniProt Q86WV6, H232R)
- Construct: STING WT: His-TVMV-S-hSTING(155-341)-H232R
- Method: STING HTRF binding assay (time resolved FRET competition), STING WT
- Test Conditions: 20 nM His-tagged STING WT cytoplasmic domain, 200 nM fluorescein-labeled cGAMP analog probe, one hour; read-out: HTRF Binding Assays IC50 WT
pIC50: −log10 of the molar value.
Kindly return satisfied if reported pIC50 is no lower than 7; return not satisfied if it is lower.

Solved entries:
Molecule	Discrete Label
C=C1[C@H]2OP(=O)(S)OC[C@H]3O[C@@H](n4cnc5c(N)ncnc54)[C@H](F)[C@@H]3OP(=O)(S)OC[C@H]1O[C@H]2n1nnc2c(C(N)=O)cccc21 (single isomer, unassigned) [Example 22-1]	satisfied
NC(=O)c1cccc2c1nnn2[C@@H]1O[C@@H]2COP(=O)(O)O[C@H]3[C@@H](F)[C@H](n4cnc5c4ncn4ccnc54)O[C@@H]3COP(=O)(S)O[C@@H]1[C@@H]2F (single isomer, unassigned) [Example 16-2]	not satisfied
NC(=O)c1cccc2c1nnn2[C@@H]1O[C@@H]2COP(=O)(O)O[C@H]3[C@@H](F)[C@H](n4cnc5c(N)ncnc54)O[C@@H]3COP(=O)(S)O[C@@H]1[C@@H]2O (single isomer, unassigned) [Example 4-1]	satisfied
Nc1ncnc2c1ncn2[C@@H]1O[C@@H]2COP(=O)(S)O[C@@H]3[C@H](O)[C@@H](COP(=O)(S)O[C@H]2[C@H]1F)O[C@H]3n1nnc2c(C(F)(F)F)cccc21 (single isomer, unassigned) [Example 9-4]	not satisfied

Kindly consider the entry below.
Assess whether reported pIC50 for Nc1ncnc2c1ncn2[C@@H]1O[C@@H]2COP(=O)(S)O[C@@H]3[C@H](O)[C@@H](COP(=O)(O)O[C@H]2[C@H]1F)O[C@H]3n1nnc2c([N+](=O)[O-])cccc21 (single isomer, unassigned) [Example 5-1] sits at 7 or higher.
satisfied
